target: STAT3 (Homo sapiens, UniProt P40763); construct: a truncated form of STAT3 (136-705) was constructed and chromatographically purified; made in house; assay: AlphaScreen-based competitive binding assay, STAT3 SH2 domain vs FITC-GpYLPQTV; conditions: 30 µM; n.a.: not active; read-out: STAT3 % Inhibition (30 µM)
Sequence (P40763 136-705): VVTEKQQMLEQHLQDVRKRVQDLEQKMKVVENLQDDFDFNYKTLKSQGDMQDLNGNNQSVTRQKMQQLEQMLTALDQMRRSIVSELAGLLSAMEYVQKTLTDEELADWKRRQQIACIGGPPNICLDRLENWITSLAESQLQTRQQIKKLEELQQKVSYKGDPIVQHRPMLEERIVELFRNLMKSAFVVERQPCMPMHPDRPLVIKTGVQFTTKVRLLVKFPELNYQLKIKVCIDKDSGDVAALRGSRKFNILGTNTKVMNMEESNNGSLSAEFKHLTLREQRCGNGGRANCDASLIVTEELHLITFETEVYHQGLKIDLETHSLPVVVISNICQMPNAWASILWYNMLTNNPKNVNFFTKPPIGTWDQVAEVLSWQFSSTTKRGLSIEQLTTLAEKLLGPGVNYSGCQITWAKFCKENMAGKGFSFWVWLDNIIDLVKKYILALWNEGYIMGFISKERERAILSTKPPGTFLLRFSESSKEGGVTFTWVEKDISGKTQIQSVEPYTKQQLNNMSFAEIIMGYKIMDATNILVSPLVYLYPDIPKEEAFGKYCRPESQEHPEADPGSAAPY
readout.label: inhibition at 30 µM (%)

Take a look at these entries with their results.
In [3]: df
Out[3]:
                  smiles_record  endpoint_unit  numeric_value
0  Cc1ccc2c(c1)N(C)S(=O)(=O)N2C              %            8.9
1    Cc1cc2c(cc1Br)NS(=O)(=O)N2              %           25.6

A = O=S1(=O)Nc2ccc(C(F)(F)F)cc2N1
B = O=S1(=O)Nc2ccc(Cl)cc2N1
Request: Input pair: A , B . Output: entry with lower inhibition at 30 µM. To answer, give the label that identifies your chosen option.
Result: A

---

molecular target: STAT3 Cys687A (Homo sapiens, UniProt P40763, C687A); construct: a truncated form of STAT3 (136-705) was constructed and chromatographically purified; test: AlphaScreen-based assay, STAT3 single-cysteine mutant Cys687A; conditions: mutated Cys687A
Sequence (P40763 136-705 C687A): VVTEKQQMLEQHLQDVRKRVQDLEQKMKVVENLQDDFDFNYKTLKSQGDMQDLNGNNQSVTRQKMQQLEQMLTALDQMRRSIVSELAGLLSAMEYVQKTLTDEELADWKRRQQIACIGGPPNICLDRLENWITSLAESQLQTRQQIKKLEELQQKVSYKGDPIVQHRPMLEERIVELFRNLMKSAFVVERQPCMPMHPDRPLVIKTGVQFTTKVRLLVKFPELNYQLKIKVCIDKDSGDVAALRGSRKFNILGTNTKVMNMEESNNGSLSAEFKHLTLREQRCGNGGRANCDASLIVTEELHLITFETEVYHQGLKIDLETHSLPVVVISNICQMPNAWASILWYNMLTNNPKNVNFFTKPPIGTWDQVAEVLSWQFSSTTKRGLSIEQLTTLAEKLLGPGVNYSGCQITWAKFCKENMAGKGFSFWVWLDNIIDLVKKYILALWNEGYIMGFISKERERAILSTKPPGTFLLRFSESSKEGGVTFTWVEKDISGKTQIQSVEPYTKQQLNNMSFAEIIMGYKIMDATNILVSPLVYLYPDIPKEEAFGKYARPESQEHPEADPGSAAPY
readout.label: IC50

Summary for this compound, "Cc1cc2c(cc1C)NS(=O)(=O)N2" : IC50 is > 30 µM

---

readout.label: melting point (°C)

>>> df
                             smiles_record  numeric_value
0               Cc1cc2c(cc1Br)NS(=O)(=O)N2            185
1                Cc1cc2c(cc1C)NS(=O)(=O)N2            148
2                 Cc1ccc2c(c1)NS(=O)(=O)N2            157
3     O=C(CN1c2ccccc2NS1(=O)=O)NCCc1ccccc1            172
4            O=S1(=O)Nc2ccc(C(F)(F)F)cc2N1            143
5  O=S1(=O)N(Cc2ccccc2)c2ccccc2N1Cc1ccccc1            134

---

target: STAT3 (Homo sapiens, UniProt P40763); construct: a truncated form of STAT3 (136-705) was constructed and chromatographically purified; made in house; assay: AlphaScreen-based competitive binding assay, STAT3 SH2 domain vs FITC-GpYLPQTV; details: 30 µM; n.a.: not active; read-out: STAT3 % Inhibition (30 µM)
readout.label: inhibition at 30 µM (%)

Take a look at these entries with their results.
>>> print(df.to_string())
                                   compound        readout_label  endpoint_unit  numeric_value
0  Oc1nc2ccccc2[nH]1 [Compound 5, 2,3-Dihydro-1H-1,3-benzodiazol-2-one]  inhibition at 30 µM              %            3.5
1       O=[N+]([O-])c1ccc2c(c1)NS(=O)(=O)N2  inhibition at 30 µM              %           56.9
2                 Cc1cc2c(cc1C)NS(=O)(=O)N2  inhibition at 30 µM              %           96.5
3                       O=S1(=O)Cc2ccccc2C1  inhibition at 30 µM              %           11.5

I = Cc1ccc2c(c1)NS(=O)(=O)N2
II = O=S1(=O)Nc2ccc(-c3ccccc3)cc2N1
Request: Input pair: I , II . Output: entry with lower inhibition at 30 µM. To answer, give the label that identifies your chosen option.
Result: II
(II: 6.1%, I: 14.5%)

I = O=C(CN1c2ccccc2NS1(=O)=O)NCCc1ccccc1
II = CC(C)CCNC(=O)CCc1ccc2c(c1)NS(=O)(=O)N2
Request: Input pair: I , II . Output: entry with lower inhibition at 30 µM. To answer, give the label that identifies your chosen option.
Result: II
(II: 11%, I: 17.3%)

---

target: STAT3 Cys542A (Homo sapiens, UniProt P40763, C542A); construct: a truncated form of STAT3 (136-705) was constructed and chromatographically purified; assay: AlphaScreen-based assay, STAT3 single-cysteine mutant Cys542A; conditions: mutated Cys542A
Sequence (P40763 136-705 C542A): as the sequence (P40763 136-705) above, with C407A counted along it
pIC50: −log10 of the molar value.
readout.label: pIC50

Summary for this molecule, Cc1cc2c(cc1C)NS(=O)(=O)N2 [Compound 1] : pIC50 is < 4.52

---

Target: STAT1 (Homo sapiens, UniProt P42224)
Sequence (P42224 1-750): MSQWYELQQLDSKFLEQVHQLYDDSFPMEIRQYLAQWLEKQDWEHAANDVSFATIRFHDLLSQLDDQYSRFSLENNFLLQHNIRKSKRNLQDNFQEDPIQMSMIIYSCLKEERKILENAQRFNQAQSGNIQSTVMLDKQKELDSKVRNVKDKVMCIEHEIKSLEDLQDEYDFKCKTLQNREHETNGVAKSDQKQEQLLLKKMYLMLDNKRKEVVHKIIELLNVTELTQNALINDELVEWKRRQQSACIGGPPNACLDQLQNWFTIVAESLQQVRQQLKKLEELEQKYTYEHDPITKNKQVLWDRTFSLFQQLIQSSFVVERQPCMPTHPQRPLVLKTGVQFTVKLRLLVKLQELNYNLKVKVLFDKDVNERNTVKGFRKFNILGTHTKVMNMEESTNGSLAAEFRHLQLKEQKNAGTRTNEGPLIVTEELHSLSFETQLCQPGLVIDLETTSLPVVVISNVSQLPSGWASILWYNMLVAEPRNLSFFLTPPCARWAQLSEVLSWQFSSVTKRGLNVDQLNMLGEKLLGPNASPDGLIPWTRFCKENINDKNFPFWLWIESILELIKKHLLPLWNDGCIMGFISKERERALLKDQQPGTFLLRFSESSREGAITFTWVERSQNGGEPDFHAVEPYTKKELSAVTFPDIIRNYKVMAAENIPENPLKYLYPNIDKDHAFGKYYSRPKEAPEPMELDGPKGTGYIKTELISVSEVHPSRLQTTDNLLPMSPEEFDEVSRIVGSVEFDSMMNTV
readout.label: IC50 (µM)
Please respond with the number in µM and leave the unit unwritten.

Summary for this molecule, O=[N+]([O-])c1ccc2c(c1)NS(=O)(=O)N2 [Compound 1d] : IC50 is 15.9

---

target: STAT3 (Homo sapiens, UniProt P40763); construct: a truncated form of STAT3 (136-705) was constructed and chromatographically purified; made in house; test: AlphaScreen-based competitive binding assay, STAT3 SH2 domain vs FITC-GpYLPQTV; conditions: Table 1; AlphaScreen-based assay at 30 µM, STAT3-SH2 domain; read-out: % Inhibition
readout.label: inhibition at 30 µM (%)

In [3]: df
Out[3]:
                                 compound  numeric_value
0  Cc1cc2c(cc1C)NS(=O)(=O)N2 [Compound 1]           96.5
1           NC1=NS(=O)(=O)Nc2nonc21 [III]           85.4

P = CN1C(Cl)=NS(=O)(=O)c2ccccc21 [I]
Q = CCN1C(Cl)=NS(=O)(=O)c2ccccc21 [II]
Request: Input pair: P , Q . Output: entry with lower inhibition at 30 µM. To answer, give the label that identifies your chosen option.
Result: Q
